# experimental_system: CYP2D6 (Homo sapiens)
# Sequence (P10635 whole entry): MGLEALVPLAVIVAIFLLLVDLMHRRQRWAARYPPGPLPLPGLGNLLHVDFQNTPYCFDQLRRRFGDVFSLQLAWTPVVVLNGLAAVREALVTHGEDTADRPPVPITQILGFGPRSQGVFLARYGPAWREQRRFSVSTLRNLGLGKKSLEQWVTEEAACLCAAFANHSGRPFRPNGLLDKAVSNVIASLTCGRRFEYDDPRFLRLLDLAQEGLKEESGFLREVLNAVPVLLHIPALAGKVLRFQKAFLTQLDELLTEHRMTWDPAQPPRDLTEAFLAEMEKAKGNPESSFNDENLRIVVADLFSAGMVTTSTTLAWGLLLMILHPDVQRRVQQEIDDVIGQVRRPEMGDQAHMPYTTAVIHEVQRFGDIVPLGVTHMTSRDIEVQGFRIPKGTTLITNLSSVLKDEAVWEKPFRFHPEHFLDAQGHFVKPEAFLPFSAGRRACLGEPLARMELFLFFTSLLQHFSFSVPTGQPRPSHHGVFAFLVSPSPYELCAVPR
# assay_comment: Inhibition of CYP2D6 (unknown origin) at 10 uM
# Format: ADME
recorded_metric: inhibition at 10 µM (%)
The response must be a number in % with no trailing unit.

Previously resolved entries follow.
>>> experimental_result("COc1ccc2c(c1C(C)N1CCNCC1)O/C(=C\\c1n[nH]c3ncccc13)C2=O (stereo not drawn)")
14
>>> experimental_result("COCCOc1ccc2c(c1C(C)N1CCNCC1)O/C(=C\\c1n[nH]c3ncccc13)C2=O (stereo not drawn)")
83

Ask | Checklist item: inhibition at 10 µM tested on CYP2D6 (Homo sapiens), entry `COc1ccc2c(c1CN1CCNCC1)O/C(=C\c1n[nH]c3ncccc13)C2=O` , value?
Reply | 23

---

# experimental_system: CYP1A2 (Homo sapiens)
# Sequence (P05177 whole entry): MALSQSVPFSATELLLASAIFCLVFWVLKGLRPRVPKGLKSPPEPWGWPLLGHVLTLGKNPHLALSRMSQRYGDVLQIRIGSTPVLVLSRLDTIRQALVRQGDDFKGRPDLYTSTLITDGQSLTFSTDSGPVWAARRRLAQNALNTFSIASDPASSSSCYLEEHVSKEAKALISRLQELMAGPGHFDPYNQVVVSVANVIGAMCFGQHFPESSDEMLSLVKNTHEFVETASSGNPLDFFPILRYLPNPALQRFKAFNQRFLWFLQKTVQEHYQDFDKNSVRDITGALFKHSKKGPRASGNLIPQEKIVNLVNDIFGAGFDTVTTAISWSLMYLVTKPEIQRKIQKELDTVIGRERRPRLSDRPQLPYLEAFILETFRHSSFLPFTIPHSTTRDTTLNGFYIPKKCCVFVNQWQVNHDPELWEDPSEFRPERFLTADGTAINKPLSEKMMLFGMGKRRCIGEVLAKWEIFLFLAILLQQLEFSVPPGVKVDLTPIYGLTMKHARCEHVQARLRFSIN
# assay_comment: Inhibition of CYP1A2 (unknown origin) at 10 uM
# Format: ADME
Catalogue of inhibition at 10 µM readings, one per entry.
Use % as the unit, but write only the number.

>>> experimental_result("COc1ccc2c(c1CN1CCNCC1)O/C(=C\\c1n[nH]c3ncccc13)C2=O")
33

Ask | So what's the measured inhibition at 10 µM for this one? COc1ccc2c(c1C(C)N1CCNCC1)O/C(=C\c1n[nH]c3ncccc13)C2=O (stereo not drawn)
Reply | 2

---

# experimental_system: CYP3A4 (Homo sapiens, UniProt P08684)
# Sequence (P08684 whole entry): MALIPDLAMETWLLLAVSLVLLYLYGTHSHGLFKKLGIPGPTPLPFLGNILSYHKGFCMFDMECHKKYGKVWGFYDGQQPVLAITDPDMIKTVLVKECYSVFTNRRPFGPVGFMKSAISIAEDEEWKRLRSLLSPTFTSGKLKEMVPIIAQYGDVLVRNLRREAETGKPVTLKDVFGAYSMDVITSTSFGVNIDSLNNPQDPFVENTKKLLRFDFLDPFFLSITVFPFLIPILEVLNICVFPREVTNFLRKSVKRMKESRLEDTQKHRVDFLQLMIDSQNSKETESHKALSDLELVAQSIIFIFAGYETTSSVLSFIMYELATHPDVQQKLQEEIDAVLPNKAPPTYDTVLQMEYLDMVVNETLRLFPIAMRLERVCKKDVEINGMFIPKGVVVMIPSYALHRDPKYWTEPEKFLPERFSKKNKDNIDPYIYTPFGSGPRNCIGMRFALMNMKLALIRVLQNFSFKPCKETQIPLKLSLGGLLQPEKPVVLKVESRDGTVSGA
# assay_comment: Inhibition of CYP3A4 (unknown origin) at 10 uM
# Format: ADME
recorded_metric: inhibition at 10 µM

Sample records with inhibition at 10 µM:
>>> experimental_result("COc1ccc2c(c1CN1CCNCC1)O/C(=C\\c1n[nH]c3ncccc13)C2=O")
"39%"
>>> experimental_result("COCCOc1ccc2c(c1C(C)N1CCNCC1)O/C(=C\\c1n[nH]c3ncccc13)C2=O (stereo not drawn)")
"< 1%"

Ask | Query: inhibition at 10 µM; subject: COc1ccc2c(c1C(C)N1CCNCC1)O/C(=C\c1n[nH]c3ncccc13)C2=O (stereo not drawn)
Reply | < 1%

---

# experimental_system: UniProtKB P33261
# Sequence (P33261 whole entry): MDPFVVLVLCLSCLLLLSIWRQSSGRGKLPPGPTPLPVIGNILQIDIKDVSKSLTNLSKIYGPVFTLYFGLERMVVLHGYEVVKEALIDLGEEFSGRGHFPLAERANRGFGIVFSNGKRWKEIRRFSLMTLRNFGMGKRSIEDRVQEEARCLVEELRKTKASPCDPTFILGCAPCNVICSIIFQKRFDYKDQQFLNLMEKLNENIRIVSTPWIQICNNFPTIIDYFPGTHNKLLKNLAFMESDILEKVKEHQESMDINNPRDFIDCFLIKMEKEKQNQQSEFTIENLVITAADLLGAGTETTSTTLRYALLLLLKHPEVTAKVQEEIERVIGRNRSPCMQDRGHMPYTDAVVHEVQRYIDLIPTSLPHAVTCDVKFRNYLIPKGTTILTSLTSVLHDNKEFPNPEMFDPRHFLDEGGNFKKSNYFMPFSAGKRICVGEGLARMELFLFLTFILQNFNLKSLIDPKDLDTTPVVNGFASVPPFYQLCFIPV
# assay_comment: Inhibition of CYP2C19 (unknown origin) at 10 uM
# Assay type: ADME
recorded_metric: inhibition at 10 µM

>>> experimental_result("COc1ccc2c(c1C(C)N1CCNCC1)O/C(=C\\c1n[nH]c3ncccc13)C2=O (stereo not drawn)")
"16%"

Ask | Request body: readout inhibition at 10 µM, system UniProtKB P33261, query COCCOc1ccc2c(c1C(C)N1CCNCC1)O/C(=C\c1n[nH]c3ncccc13)C2=O (stereo not drawn) . Return the value.
Reply | < 1%

Ask | Can you check `COc1ccc2c(c1CN1CCNCC1)O/C(=C\c1n[nH]c3ncccc13)C2=O` next?
Reply | < 1%

---

# assay_comment: Aqueous solubility in PBS buffer solution at pH 7.4
# Type: physicochemical
recorded_metric: solubility
Answer with the number, then the unit.

>>> experimental_result("COCCOc1ccc2c(c1C(C)N1CCNCC1)O/C(=C\\c1n[nH]c3ncccc13)C2=O (centres undefined)")
"196 µM"
>>> experimental_result("COc1ccc2c(c1CN1CCNCC1)O/C(=C\\c1n[nH]c3ncccc13)C2=O")
"182 µM"
>>> experimental_result("COc1ccc2c(c1C(C)N1CCNCC1)O/C(=C\\c1n[nH]c3ncccc13)C2=O (centres undefined)")
"558 µM"

Continue with the compound presented below.
Ask | Would you kindly share the measured solubility for `COc1ccc2c(c1CN1CCNCC1)O/C(=C\c1n[nH]c3ccccc13)C2=O` ?
Reply | 187 µM

---

# experimental_system: hERG (KCNH2) (Homo sapiens)
# Sequence (Q12809 whole entry): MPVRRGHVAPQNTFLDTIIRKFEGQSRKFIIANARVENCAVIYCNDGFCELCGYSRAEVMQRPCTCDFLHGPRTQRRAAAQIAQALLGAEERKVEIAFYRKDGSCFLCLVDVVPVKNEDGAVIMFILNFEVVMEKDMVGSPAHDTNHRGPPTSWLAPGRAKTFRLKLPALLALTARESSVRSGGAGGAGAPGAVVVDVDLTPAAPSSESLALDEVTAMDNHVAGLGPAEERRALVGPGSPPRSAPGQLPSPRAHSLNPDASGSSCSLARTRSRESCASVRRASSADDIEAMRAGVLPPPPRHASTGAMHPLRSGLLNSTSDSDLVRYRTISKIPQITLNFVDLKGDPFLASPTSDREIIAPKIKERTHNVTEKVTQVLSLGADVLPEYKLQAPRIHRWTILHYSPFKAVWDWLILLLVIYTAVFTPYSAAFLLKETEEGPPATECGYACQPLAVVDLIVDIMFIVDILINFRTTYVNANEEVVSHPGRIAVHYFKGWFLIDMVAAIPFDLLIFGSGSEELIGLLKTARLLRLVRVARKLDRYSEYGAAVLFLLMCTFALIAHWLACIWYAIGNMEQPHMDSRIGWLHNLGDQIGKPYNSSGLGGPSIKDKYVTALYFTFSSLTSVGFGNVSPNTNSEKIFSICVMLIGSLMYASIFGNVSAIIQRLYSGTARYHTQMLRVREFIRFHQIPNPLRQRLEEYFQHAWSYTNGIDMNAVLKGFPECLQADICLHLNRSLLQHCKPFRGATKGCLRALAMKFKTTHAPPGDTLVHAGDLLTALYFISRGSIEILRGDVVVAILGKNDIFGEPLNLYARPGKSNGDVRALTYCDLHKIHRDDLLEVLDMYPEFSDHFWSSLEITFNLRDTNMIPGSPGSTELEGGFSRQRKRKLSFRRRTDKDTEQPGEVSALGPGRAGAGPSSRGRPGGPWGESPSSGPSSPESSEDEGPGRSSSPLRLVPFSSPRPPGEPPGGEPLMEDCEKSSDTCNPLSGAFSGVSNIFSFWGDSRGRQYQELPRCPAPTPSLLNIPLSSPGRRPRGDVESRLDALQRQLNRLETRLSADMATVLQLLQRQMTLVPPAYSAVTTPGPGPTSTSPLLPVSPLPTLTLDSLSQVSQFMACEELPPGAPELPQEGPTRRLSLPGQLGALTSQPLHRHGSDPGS
# assay_comment: Inhibition of human ERG at 10 uM by patch-clamp method
# key: entry, value: inhibition at 10 µM
Quick note: give the figure in %, leave out the unit.

Recorded inhibition at 10 µM, per entry:
>>> experimental_result("COCCOc1ccc2c(c1C(C)N1CCNCC1)O/C(=C\\c1n[nH]c3ncccc13)C2=O (stereo not drawn)")
16
>>> experimental_result("COc1ccc2c(c1CN1CCNCC1)O/C(=C\\c1n[nH]c3ncccc13)C2=O")
34

Here is another compound to look at.
Ask | Recorded inhibition at 10 µM for COc1ccc2c(c1C(C)N1CCNCC1)O/C(=C\c1n[nH]c3ncccc13)C2=O (stereo not drawn) , please?
Reply | 34

---

# experimental_system: UniProt:P49841
# Sequence (P49841 whole entry): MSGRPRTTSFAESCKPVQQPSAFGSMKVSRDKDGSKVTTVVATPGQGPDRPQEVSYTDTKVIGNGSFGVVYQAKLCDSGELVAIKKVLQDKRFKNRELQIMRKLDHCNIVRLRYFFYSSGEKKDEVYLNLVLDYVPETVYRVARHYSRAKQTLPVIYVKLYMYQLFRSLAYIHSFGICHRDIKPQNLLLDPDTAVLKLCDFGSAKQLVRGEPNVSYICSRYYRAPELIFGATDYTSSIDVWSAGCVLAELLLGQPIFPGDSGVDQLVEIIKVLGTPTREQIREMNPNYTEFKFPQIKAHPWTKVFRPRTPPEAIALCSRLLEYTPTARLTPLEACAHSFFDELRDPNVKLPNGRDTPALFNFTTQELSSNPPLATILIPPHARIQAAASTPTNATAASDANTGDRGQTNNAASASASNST
recorded_metric: pIC50
Value format note: pIC50 is -log10 of concentration (mol/L); just state the number.

Ask | Find the recorded pIC50 belonging to COc1ccc2c(c1C(C)N1CCNCC1)O/C(=C\c1n[nH]c3ncccc13)C2=O (stereo unspecified) and report it.
Reply | 8.21

---

# assay_comment: Growth inhibition of human PCI66 cells after 72 hrs by CCK-8 assay
# Format: functional, cell-based
# cond: PCI66, 72 h
pIC50: −log10 of the molar value.
recorded_metric: pIC50

These recorded examples may help you get a feel for the data.
>>> experimental_result("C#Cc1cccc(Nc2ncnc3cc(OCCOC)c(OCCOC)cc23)c1")
"< 5.00"
>>> experimental_result("COc1ccc2c(c1C(C)N1CCNCC1)O/C(=C\\c1n[nH]c3ncccc13)C2=O (stereo not drawn)")
5.42

Ask | Requested field: pIC50. Item: `COc1ccc2c(c1CN1CCNCC1)O/C(=C\c1n[nH]c3ccccc13)C2=O`
Reply | < 5.00

---

# experimental_system: Serine/threonine-protein kinase pim-3 (Homo sapiens)
pIC50: −log10 of the molar value.
Note to self: values exactly at 8 are Satisfied. So pIC50 at or above 8 is Satisfied, below is Not satisfied.

Ask | Dear colleague, could you confirm whether `COc1ccc2c(c1CN1CCNC[C@H]1C)O/C(=C\c1n[nH]c3ncccc13)C2=O` has pIC50 at or above 8?
Reply | Not satisfied

Ask | Cool, now `COc1ccc2c(c1CN1CCNCC1)O/C(=C\c1c[nH]c3ccncc13)C2=O`
Reply | Not satisfied

Ask | Record: COCCOc1ccc2c(c1C(C)N1CCNCC1)O/C(=C\c1n[nH]c3ncccc13)C2=O (configuration not stated)
Reply | Satisfied

---

# experimental_system: Serine/threonine-protein kinase pim-3 (Homo sapiens, UniProt Q86V86)
recorded_metric: pIC50
pIC50 here is simply -log10 of the concentration when that concentration is written in mol/L.

For orientation, consider the following solved cases.
>>> experimental_result("CC(c1c(OCCO)ccc2c1O/C(=C\\c1n[nH]c3ncccc13)C2=O)N1CCNCC1 (centres undefined)")
8.19
>>> experimental_result("COc1ccc2c(c1CN1CCNCC1)O/C(=C\\c1n[nH]c3ncccc13)C2=O")
8.74
>>> experimental_result("COc1ccc2c(c1CN1CCNCC1)O/C(=C\\c1c[nH]c3cnccc13)C2=O")
7.36

Proceed to the following item.
Ask | So what does the record say about pIC50 for `COc1ccc2c(c1CN1CCN[C@@H](C)C1)O/C(=C\c1n[nH]c3ncccc13)C2=O` ?
Reply | 9.10

Provenance of the data: ChEMBL document CHEMBL3734671
